System: P388 leukemia ip, CD2F1 mice, survival T/C
Assay: NCI In Vivo Anticancer Drug Screen. Data for tumor model P388 Leukemia (intraperitoneal) in CD2F1 (CDF1) mice
Settings: endpoint: median survival time; dose: 100.0 mg/kg/injection; schedule: Q04DX002 (ip); vehicle: Klucel (hydroxypropylcellulose) (HPC); higher = longer survival
Inconclusive results and toxic doses are left out.
Listing of entries alongside the reported T/C.

- compound: "NC(=S)N/N=C/C=C/c1ccccc1"
  T/C: "101 % of control"
- compound: "Cc1ccc2c(c1)P(=O)(c1ccccc1C(O)(C(F)(F)F)C(F)(F)F)c1cc(C)ccc1O2"
  T/C: "101 % of control"
- compound: "Cc1c(N=Nc2ccc([N+](=O)[O-])cc2)nc2scc(-c3ccccc3)n12"
  T/C: "86 % of control"
- compound: "C/C(=N\\NC(=O)c1ccccc1)C(=O)O"
  T/C: "106 % of control"
- compound: "Cc1cn(CCCCCCOc2c3occc3cc3ccc(=O)oc23)c(=O)[nH]c1=O"
  T/C: "104 % of control"
- compound: "Cc1nc(C)c2c(C)[nH]c(-c3ccccc3)c2n1"
  T/C: "108 % of control"
- compound: "O=C([O-])c1ccccc1[O-].[Cu+2].c1cnc2c(c1)ccc1cccnc12"
  T/C: "109 % of control"
- compound: "Cn1cnc2cc(N3CCOCC3)c(N)cc2c1=O"
  T/C: "106 % of control"
- compound: "CC(C)(C)c1ccc(C(O)(C(F)(F)F)C(F)(F)F)cc1"
  T/C: "94 % of control"
- compound: "COc1ccccc1OCC1CCC(=O)O1 (stereo not given)"
  T/C: "95 % of control"

Where these numbers come from: PubChem BioAssay AID330
